Attribute: inhibition at 1.11 µM
Target: VPS34 (Homo sapiens, UniProt Q8NEB9)
Construct: GST (N); host or cells: SF9 insect cells (baculovirus)
Sequence (Q8NEB9 whole entry): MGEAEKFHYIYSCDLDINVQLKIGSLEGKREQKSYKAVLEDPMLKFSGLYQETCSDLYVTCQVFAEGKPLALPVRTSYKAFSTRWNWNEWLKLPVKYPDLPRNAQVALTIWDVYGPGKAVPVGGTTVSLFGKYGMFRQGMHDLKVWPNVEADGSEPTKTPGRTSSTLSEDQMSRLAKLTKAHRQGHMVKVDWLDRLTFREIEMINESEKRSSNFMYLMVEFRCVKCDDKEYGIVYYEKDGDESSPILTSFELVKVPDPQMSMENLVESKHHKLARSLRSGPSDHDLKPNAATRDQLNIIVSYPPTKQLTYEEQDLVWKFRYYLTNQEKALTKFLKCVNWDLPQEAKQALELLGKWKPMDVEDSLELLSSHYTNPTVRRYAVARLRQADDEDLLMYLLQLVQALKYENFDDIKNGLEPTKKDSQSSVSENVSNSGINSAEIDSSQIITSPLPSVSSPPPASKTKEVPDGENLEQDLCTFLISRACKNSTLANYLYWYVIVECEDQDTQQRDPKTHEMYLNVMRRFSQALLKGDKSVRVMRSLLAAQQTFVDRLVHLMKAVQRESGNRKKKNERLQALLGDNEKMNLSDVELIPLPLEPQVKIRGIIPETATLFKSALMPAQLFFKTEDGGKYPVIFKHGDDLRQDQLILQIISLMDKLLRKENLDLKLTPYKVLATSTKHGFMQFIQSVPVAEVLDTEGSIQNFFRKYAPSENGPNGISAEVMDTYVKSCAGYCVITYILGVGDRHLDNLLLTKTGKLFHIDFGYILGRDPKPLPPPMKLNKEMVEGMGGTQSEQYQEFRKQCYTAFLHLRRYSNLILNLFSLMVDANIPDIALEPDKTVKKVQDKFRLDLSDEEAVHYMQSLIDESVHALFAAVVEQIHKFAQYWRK
Assay: Human VPS34 enzyme assay (Adapta Universal Kinase Assay)
Format: biochemical
Details: 1 h, read-out: VPS34 % ihn
Measure name: inhibition at 1.11 µM (%)

>  <Molecule>
O=C1NCCC(c2ccc(Cl)c(Cl)c2)c2nc(N3CCOCC3)sc21 (stereo not shown)

>  <Target under test>
VPS34 (Homo sapiens, UniProt Q8NEB9)

>  <Endpoint result>
41.8

$$$$
>  <Molecule>
CC1=CC(=O)Nc2sc(-c3ccncc3)cc2C1(C)c1ccc(Cl)cc1 (stereo not shown)

>  <Target under test>
VPS34 (Homo sapiens, UniProt Q8NEB9)

>  <Endpoint result>
28.5

$$$$
>  <Molecule>
C[Si](C)(C)CCOCN1CC(O)(c2ccc3ccccc3c2)c2cc(N3CCOCC3)sc2S1(=O)=O (stereo not shown)

>  <Target under test>
VPS34 (Homo sapiens, UniProt Q8NEB9)

>  <Endpoint result>
5.73

$$$$
>  <Molecule>
CN1CC(c2ccc(Cl)cc2)c2cc(-c3ccncc3)sc2C1=O (stereo not shown)

>  <Target under test>
VPS34 (Homo sapiens, UniProt Q8NEB9)

>  <Endpoint result>
8.39

$$$$
